Reported pIC50 for target or system UniProt O00329, by entry.
// pIC50 here means minus log10 of the molar concentration (mol/L)

Query block: Given the compound CC[C@H](Nc1ncnc2[nH]ccc12)c1nc2cccc(F)c2c(=O)n1-c1ccccc1 [Compound 1A] , what is its reported pIC50?
Result block: 8.10

Query block: Given the compound CC[C@H](Nc1ncnc2[nH]cnc12)c1nc2cccc(F)c2c(=O)n1-c1cccc(OCC(F)(F)F)c1 [Compound 10A] , what is its reported pIC50?
Result block: 7.70

Query block: Given the compound C[C@H](Nc1ncnc2[nH]ccc12)c1nc2cccc(F)c2c(=O)n1-c1ccc(OCC(F)(F)F)cc1 [Compound 15A] , what is its reported pIC50?
Result block: 8.05

Query block: Given the compound CC[C@H](Nc1ncnc2[nH]ccc12)c1nc2cccc(F)c2c(=O)n1-c1cccc(OCC(F)(F)F)c1 [Compound 11A] , what is its reported pIC50?
Result block: 6.96

Query block: Given the compound O=c1c2c(F)cccc2nc([C@H](CC(F)(F)F)Nc2ncnc3[nH]cnc23)n1-c1ccccc1 [Compound 2A] , what is its reported pIC50?
Result block: 7.10

Query block: Given the compound C[C@H](Nc1ncnc2[nH]ccc12)c1nc2cccc(F)c2c(=O)n1-c1cccc(OCC(F)(F)C(F)(F)F)c1 [Compound 19A] , what is its reported pIC50?
Result block: 6.72

Query block: Given the compound C[C@H](Nc1ncnc2[nH]cc(F)c12)c1nc2cccc(F)c2c(=O)n1-c1cccc(OCC(F)(F)F)c1 [Compound 17A] , what is its reported pIC50?
Result block: 8.10

Query block: Given the compound O=c1c2c(F)cccc2nc(CNc2ncnc3[nH]ccc23)n1-c1cccc(OCC(F)(F)F)c1 [Compound 21A] , what is its reported pIC50?
Result block: 5.68

Query block: Given the compound CC[C@H](Nc1ncnc2[nH]ccc12)c1nc2cccc(F)c2c(=O)n1-c1ccc(OCC(F)(F)F)cc1 [Compound 16A] , what is its reported pIC50?
Result block: 7.05

Query block: Given the compound C[C@H](Nc1ncnc2[nH]ccc12)c1nc2cccc(Cl)c2c(=O)n1-c1cccc(OCC(F)(F)F)c1 [Compound 20A] , what is its reported pIC50?
Result block: 8.00

====

Field: pIC50. Provide a value for each of the compounds that follow.
// pIC50 here means minus log10 of the molar concentration (mol/L)

Query block: What measured pIC50 is associated with CC[C@H](Nc1ncnc2[nH]ccc12)c1nc2cccc(F)c2c(=O)n1-c1cccc(OCC(F)(F)F)c1 [Compound 11A] on PI3Kγ (Homo sapiens (Human))?
Result block: 5.52

Query block: What measured pIC50 is associated with C[C@H](Nc1ncnc2[nH]ccc12)c1nc2cccc(Cl)c2c(=O)n1-c1cccc(OCC(F)(F)F)c1 [Compound 20A] on PI3Kγ (Homo sapiens (Human))?
Result block: 6.34

Query block: What measured pIC50 is associated with CC[C@H](Nc1ncnc2[nH]ccc12)c1nc2cccc(F)c2c(=O)n1-c1ccc(OCC(F)(F)F)cc1 [Compound 16A] on PI3Kγ (Homo sapiens (Human))?
Result block: 5.27

Query block: What measured pIC50 is associated with O=c1c2c(F)cccc2nc([C@H](CC(F)(F)F)Nc2ncnc3[nH]cnc23)n1-c1ccccc1 on PI3Kγ (Homo sapiens (Human))?
Result block: 5.74

Query block: What measured pIC50 is associated with CC[C@H](Nc1ncnc2[nH]cnc12)c1nc2cccc(F)c2c(=O)n1-c1cccc(OCC(F)(F)F)c1 [Compound 10A] on PI3Kγ (Homo sapiens (Human))?
Result block: 6.13

Query block: What measured pIC50 is associated with C[C@H](Nc1ncnc2[nH]cc(F)c12)c1nc2cccc(F)c2c(=O)n1-c1cccc(OCC(F)(F)F)c1 [Compound 17A] on PI3Kγ (Homo sapiens (Human))?
Result block: 5.92

Query block: What measured pIC50 is associated with C[C@H](Nc1ncnc2[nH]ccc12)c1nc2cccc(F)c2c(=O)n1-c1ccc(OCC(F)(F)F)cc1 [Compound 15A] on PI3Kγ (Homo sapiens (Human))?
Result block: 6.13

Query block: What measured pIC50 is associated with C[C@H](Nc1ncnc2[nH]ccc12)c1nc2cccc(F)c2c(=O)n1-c1cccc(OCC(F)(F)C(F)(F)F)c1 [Compound 19A] on PI3Kγ (Homo sapiens (Human))?
Result block: 5.35

====

- Test Target: PI3Kδ human fl (Homo sapiens (Human))
- Sequence (O00329 whole entry): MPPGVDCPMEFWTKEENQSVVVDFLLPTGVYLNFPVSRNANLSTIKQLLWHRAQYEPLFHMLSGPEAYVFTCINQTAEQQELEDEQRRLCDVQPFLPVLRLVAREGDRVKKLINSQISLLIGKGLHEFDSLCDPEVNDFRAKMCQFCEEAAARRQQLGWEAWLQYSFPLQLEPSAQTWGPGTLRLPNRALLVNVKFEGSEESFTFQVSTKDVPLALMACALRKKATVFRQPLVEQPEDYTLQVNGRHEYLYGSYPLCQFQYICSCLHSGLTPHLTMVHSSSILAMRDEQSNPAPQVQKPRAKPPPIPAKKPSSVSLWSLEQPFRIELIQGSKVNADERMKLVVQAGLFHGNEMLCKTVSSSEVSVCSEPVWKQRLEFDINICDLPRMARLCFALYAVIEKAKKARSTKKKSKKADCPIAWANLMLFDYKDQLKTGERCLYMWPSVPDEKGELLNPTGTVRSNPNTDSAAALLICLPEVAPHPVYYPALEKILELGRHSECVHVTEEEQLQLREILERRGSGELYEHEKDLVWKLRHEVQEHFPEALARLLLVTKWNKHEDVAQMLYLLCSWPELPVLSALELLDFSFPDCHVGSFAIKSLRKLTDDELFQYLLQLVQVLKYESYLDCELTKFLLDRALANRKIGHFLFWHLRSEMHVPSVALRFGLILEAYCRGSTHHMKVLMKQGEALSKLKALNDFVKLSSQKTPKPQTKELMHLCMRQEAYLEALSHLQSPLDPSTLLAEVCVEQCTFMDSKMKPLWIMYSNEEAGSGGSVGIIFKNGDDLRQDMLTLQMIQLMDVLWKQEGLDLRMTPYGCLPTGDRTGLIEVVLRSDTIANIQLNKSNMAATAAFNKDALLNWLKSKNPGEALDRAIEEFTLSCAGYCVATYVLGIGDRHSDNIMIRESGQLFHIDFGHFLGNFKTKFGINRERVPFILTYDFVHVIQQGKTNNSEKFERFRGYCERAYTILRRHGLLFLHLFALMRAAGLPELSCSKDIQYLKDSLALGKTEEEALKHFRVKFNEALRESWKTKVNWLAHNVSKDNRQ
- Sequence (P27986 whole entry partner): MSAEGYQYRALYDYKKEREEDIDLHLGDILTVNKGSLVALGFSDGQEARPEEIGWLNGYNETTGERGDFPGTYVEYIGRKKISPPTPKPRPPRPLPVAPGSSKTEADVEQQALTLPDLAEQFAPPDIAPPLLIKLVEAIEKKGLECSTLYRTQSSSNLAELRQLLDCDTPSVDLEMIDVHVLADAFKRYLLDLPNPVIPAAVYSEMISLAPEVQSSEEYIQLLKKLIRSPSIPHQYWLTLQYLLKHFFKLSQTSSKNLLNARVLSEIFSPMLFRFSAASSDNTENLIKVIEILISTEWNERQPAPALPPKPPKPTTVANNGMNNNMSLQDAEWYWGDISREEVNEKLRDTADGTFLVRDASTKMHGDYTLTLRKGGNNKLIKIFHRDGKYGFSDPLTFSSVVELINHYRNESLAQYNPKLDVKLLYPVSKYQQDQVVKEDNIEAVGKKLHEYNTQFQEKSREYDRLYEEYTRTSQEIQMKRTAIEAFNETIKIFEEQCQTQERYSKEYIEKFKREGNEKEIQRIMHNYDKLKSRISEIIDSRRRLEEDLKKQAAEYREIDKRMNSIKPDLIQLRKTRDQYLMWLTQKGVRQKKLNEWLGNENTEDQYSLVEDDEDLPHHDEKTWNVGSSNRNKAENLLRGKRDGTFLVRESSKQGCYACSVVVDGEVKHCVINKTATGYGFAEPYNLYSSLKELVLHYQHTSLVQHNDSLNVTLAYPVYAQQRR
- Experiment: Reporter displacement assay
Reported Property: IC50 (nM)
Field format: number, assumed nM, no unit text.

Query block: Given the compound C[C@H](Nc1ncnc2[nH]ccc12)c1nc2cccc(F)c2c(=O)n1-c1cccc(OCC(F)F)c1 [Compound 22A] , what is its reported IC50?
Result block: 20

====

Field: pIC50. Provide a value for each of the compounds that follow.
// pIC50 here means minus log10 of the molar concentration (mol/L)

Query block: What measured pIC50 is associated with C[C@H](Nc1ncnc2[nH]cc(F)c12)c1nc2cccc(F)c2c(=O)n1-c1cccc(OCC(F)(F)F)c1 [Compound 17A] on PI3Kα (Homo sapiens (Human))?
Result block: 5.00

Query block: What measured pIC50 is associated with C[C@H](Nc1ncnc2[nH]ccc12)c1nc2cccc(Cl)c2c(=O)n1-c1cccc(OCC(F)(F)F)c1 [Compound 20A] on PI3Kα (Homo sapiens (Human))?
Result block: 5.39

Query block: What measured pIC50 is associated with CC[C@H](Nc1ncnc2[nH]ccc12)c1nc2cccc(F)c2c(=O)n1-c1cccc(OCC(F)(F)F)c1 [Compound 11A] on PI3Kα (Homo sapiens (Human))?
Result block: 3.94

Query block: What measured pIC50 is associated with C[C@H](Nc1ncnc2[nH]ccc12)c1nc2cccc(F)c2c(=O)n1-c1ccc(OCC(F)(F)F)cc1 [Compound 15A] on PI3Kα (Homo sapiens (Human))?
Result block: 5.01

Query block: What measured pIC50 is associated with CC[C@H](Nc1ncnc2[nH]ccc12)c1nc2cccc(F)c2c(=O)n1-c1ccccc1 [Compound 1A] on PI3Kα (Homo sapiens (Human))?
Result block: 5.43

Query block: What measured pIC50 is associated with CC[C@H](Nc1ncnc2[nH]cnc12)c1nc2cccc(F)c2c(=O)n1-c1cccc(CC(F)(F)F)c1 [Compound 6A] on PI3Kα (Homo sapiens (Human))?
Result block: 4.82

====

Reported Property: IC50 (µM)
Field format: number, assumed µM, no unit text.

Query block: What measured IC50 is associated with C[C@H](Nc1ncnc2[nH]ccc12)c1nc2cccc(F)c2c(=O)n1-c1ccc(OCC(F)(F)F)cc1 [Compound 15A] on PI3Kβ (Homo sapiens (Human), UniProt P42338)?
Result block: 7.3

Query block: What measured IC50 is associated with CC[C@H](Nc1ncnc2[nH]ccc12)c1nc2cccc(F)c2c(=O)n1-c1ccccc1 on PI3Kβ (Homo sapiens (Human), UniProt P42338)?
Result block: 0.65

Query block: What measured IC50 is associated with CC[C@H](Nc1ncnc2[nH]ccc12)c1nc2cccc(F)c2c(=O)n1-c1ccc(OCC(F)(F)F)cc1 [Compound 16A] on PI3Kβ (Homo sapiens (Human), UniProt P42338)?
Result block: 10.5

Query block: What measured IC50 is associated with CC[C@H](Nc1ncnc2[nH]ccc12)c1nc2cccc(F)c2c(=O)n1-c1cccc(CC(F)(F)F)c1 on PI3Kβ (Homo sapiens (Human), UniProt P42338)?
Result block: 5.8

Query block: What measured IC50 is associated with CC[C@H](Nc1ncnc2[nH]cnc12)c1nc2cccc(F)c2c(=O)n1-c1cccc(CC(F)(F)F)c1 on PI3Kβ (Homo sapiens (Human), UniProt P42338)?
Result block: 3.1

Query block: What measured IC50 is associated with C[C@H](Nc1ncnc2[nH]ccc12)c1nc2cccc(Cl)c2c(=O)n1-c1cccc(OCC(F)(F)F)c1 [Compound 20A] on PI3Kβ (Homo sapiens (Human), UniProt P42338)?
Result block: 1.1

Query block: What measured IC50 is associated with C[C@H](Nc1ncnc2[nH]cc(F)c12)c1nc2cccc(F)c2c(=O)n1-c1cccc(OCC(F)(F)F)c1 [Compound 17A] on PI3Kβ (Homo sapiens (Human), UniProt P42338)?
Result block: 3.4

Query block: What measured IC50 is associated with O=c1c2c(F)cccc2nc([C@H](CC(F)(F)F)Nc2ncnc3[nH]cnc23)n1-c1ccccc1 on PI3Kβ (Homo sapiens (Human), UniProt P42338)?
Result block: 3.9
